For each of the compounds below, state its GI50.
# System: SK-OV-3
# assay.summary: NCI tumour cell line growth inhibition, 48 h
Calls of active or inactive are those of the source. Rule as the data show it: active = GI50 up to about 1.1 µM and inactive = higher.

compound	system.under.test	GI50
C[N+](C)(C)CC1CCCCC1O (configuration not stated)	SK-OV-3	> 100 µM (inactive)
CCN(CC)C(=O)Cn1c2c(c3ccccc31)CCCC2	SK-OV-3	> 100 µM (inactive)
Nc1ccn(C2OC(CO)C(O)C2O)c(=O)c1 (configuration not stated)	SK-OV-3	> 625 µM (inactive)
O=C1c2ccccc2C(=O)c2c(NCCNCCO)ccc(O)c21	SK-OV-3	2.55 µM (inactive)
C/C=C/C=C/[C@H]1Cc2cc(O)cc(O)c2O1	SK-OV-3	> 100 µM (inactive)

List the reported GI50 of each compound below.
1. CC(=O)/N=C1\NC(=O)/C(=C/c2ccccc2Cl)N1C
2. O=C(OCc1nc2ccc(Br)cc2c(=O)n1-c1ccccc1)c1ccccc1O
3. COc1ccc(/N=N/c2c(N)nn(C)c2N)cc1
4. CCOC(=O)C(NC(=O)CC(C)C)(Nc1ccc(C(F)(F)F)cc1)C(F)(F)F (configuration not stated)
5. CCC1(CC)CC(=NNS(=O)(=O)c2ccc(C)cc2)C1
6. O=C1C2=C(c3ccccc31)C(c1ccc(Cl)cc1)N1C(=O)CCSC1=N2 (configuration not stated)
7. Cc1ccc(F)c2c(=O)cc(-c3ccccc3)[nH]c12

**A:**
1: > 100 µM (inactive); 2: > 100 µM (inactive); 3: > 100 µM (inactive); 4: > 100 µM (inactive); 5: > 100 µM (inactive); 6: > 100 µM (inactive); 7: > 100 µM (inactive)

List the reported GI50 of each compound below.
1. COc1cc(OC)cc(-c2nc3cc(F)ccc3s2)c1
2. O=C(c1ccco1)N(C(=O)N1CCN(c2ccccc2)CC1)S(=O)(=O)c1ccccc1

**A:**
13.5 µM (inactive)
> 100 µM (inactive)

These data points were gathered from ChEMBL document CHEMBL1201862.
